# Test system: B16
# method_description: Cellular uptake in mouse B16 cells relative to unglycosylated TPP(p-DegOH)3
# Assay type: ADME, cell-based
# cutoff 2 applies to Ratio; >= gives y, < gives n

>>> group("OC[C@H]1O[C@@H](OCCOCCOc2ccc(-c3c4nc(c(-c5ccccc5)c5ccc([nH]5)c(-c5ccc(OCCOCCO[C@@H]6O[C@H](CO)[C@H](O)[C@@H](O)[C@H]6O)cc5)c5ccc([nH]5)c(-c5ccc(OCCOCCO[C@@H]6O[C@H](CO)[C@H](O)[C@@H](O)[C@H]6O)cc5)c5nc3C=C5)C=C4)cc2)[C@H](O)[C@H](O)[C@H]1O")
"y"

In: In plain terms: is recorded Ratio at least 2 for OC[C@H]1O[C@H](OCCOc2ccc(-c3c4nc(c(-c5ccccc5)c5ccc([nH]5)c(-c5ccc(OCCO[C@H]6O[C@H](CO)[C@@H](O)[C@@H](O)[C@@H]6O)cc5)c5ccc([nH]5)c(-c5ccc(OCCO[C@H]6O[C@H](CO)[C@@H](O)[C@H](O)[C@@H]6O)cc5)c5nc3C=C5)C=C4)cc2)[C@@H](O)[C@@H](O)[C@@H]1O ?
Out: n

In: Record OCCOCCOc1ccc(-c2c3nc(c(-c4ccccc4)c4ccc([nH]4)c(-c4ccc(OCCOCCO)cc4)c4ccc([nH]4)c(-c4ccc(OCCOCCO)cc4)c4nc2C=C4)C=C3)cc1 ; criterion: Ratio no lower than 2. Met?
Out: n

In: Determine whether measured Ratio meets or exceeds 2 for OC[C@H]1O[C@@H](SCCOCCOc2ccc(-c3c4nc(c(-c5ccccc5)c5ccc([nH]5)c(-c5ccc(OCCOCCS[C@@H]6O[C@H](CO)[C@H](O)[C@@H](O)[C@H]6O)cc5)c5ccc([nH]5)c(-c5ccc(OCCOCCS[C@@H]6O[C@H](CO)[C@H](O)[C@@H](O)[C@H]6O)cc5)c5nc3C=C5)C=C4)cc2)[C@H](O)[C@H](O)[C@H]1O
Out: y

In: Tell me whether Ratio is at least 2 here: OC[C@H]1O[C@H](OCCOCCOc2ccc(-c3c4nc(c(-c5ccccc5)c5ccc([nH]5)c(-c5ccc(OCCOCCO[C@H]6O[C@H](CO)[C@@H](O)[C@H](O)[C@@H]6O)cc5)c5ccc([nH]5)c(-c5ccc(OCCOCCO[C@H]6O[C@H](CO)[C@@H](O)[C@H](O)[C@@H]6O)cc5)c5nc3C=C5)C=C4)cc2)[C@@H](O)[C@@H](O)[C@@H]1O
Out: y

* * *

# Tested on: Y79
# method_description: Toxicity against human Y79 cells at 2 uM after 4 hrs in dark
# Type: cell-based
# assay_conditions: y79, 4 h
assay_endpoint: Activity

>>> measured_result("OC[C@H]1O[C@@H](OCCOCCOc2ccc(-c3c4nc(c(-c5ccccc5)c5ccc([nH]5)c(-c5ccc(OCCOCCO[C@@H]6O[C@H](CO)[C@H](O)[C@@H](O)[C@H]6O)cc5)c5ccc([nH]5)c(-c5ccc(OCCOCCO[C@@H]6O[C@H](CO)[C@H](O)[C@@H](O)[C@H]6O)cc5)c5nc3C=C5)C=C4)cc2)[C@H](O)[C@H](O)[C@H]1O")
"Not Active"
>>> measured_result("OC[C@H]1O[C@H](OCCOCCOc2ccc(-c3c4nc(c(-c5ccccc5)c5ccc([nH]5)c(-c5ccc(OCCOCCO[C@H]6O[C@H](CO)[C@@H](O)[C@H](O)[C@@H]6O)cc5)c5ccc([nH]5)c(-c5ccc(OCCOCCO[C@H]6O[C@H](CO)[C@@H](O)[C@H](O)[C@@H]6O)cc5)c5nc3C=C5)C=C4)cc2)[C@@H](O)[C@@H](O)[C@@H]1O")
"Not Active"
>>> measured_result("OC[C@H]1O[C@@H](SCCOCCOc2ccc(-c3c4nc(c(-c5ccccc5)c5ccc([nH]5)c(-c5ccc(OCCOCCS[C@@H]6O[C@H](CO)[C@H](O)[C@@H](O)[C@H]6O)cc5)c5ccc([nH]5)c(-c5ccc(OCCOCCS[C@@H]6O[C@H](CO)[C@H](O)[C@@H](O)[C@H]6O)cc5)c5nc3C=C5)C=C4)cc2)[C@H](O)[C@H](O)[C@H]1O")
"Not Active"
